All values here come from patent US12060433B2.

ka by entry:
Molecular target: T1, human CD73 (SEQ ID NO: 70) (Homo sapiens, UniProt P21589)
T1 construct: purchased BPS Bioscience
T1 sequence (P21589 27-549): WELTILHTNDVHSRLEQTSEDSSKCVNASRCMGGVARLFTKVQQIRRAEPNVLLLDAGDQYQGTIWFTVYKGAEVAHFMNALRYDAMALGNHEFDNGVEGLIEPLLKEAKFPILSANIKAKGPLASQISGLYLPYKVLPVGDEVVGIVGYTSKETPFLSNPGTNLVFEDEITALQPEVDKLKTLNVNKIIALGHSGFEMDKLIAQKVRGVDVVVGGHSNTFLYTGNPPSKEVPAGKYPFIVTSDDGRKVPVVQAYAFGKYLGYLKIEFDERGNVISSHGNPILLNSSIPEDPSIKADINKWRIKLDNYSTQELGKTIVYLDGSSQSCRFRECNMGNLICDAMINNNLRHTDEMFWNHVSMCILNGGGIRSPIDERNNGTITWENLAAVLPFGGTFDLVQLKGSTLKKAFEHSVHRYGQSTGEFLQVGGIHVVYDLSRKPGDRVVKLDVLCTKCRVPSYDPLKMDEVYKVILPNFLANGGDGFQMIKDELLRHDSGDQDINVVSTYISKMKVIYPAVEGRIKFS
Assay: SPR (Biacore 8K) binding affinity and kinetics to human CD73
Details: human CD73, open conformation, 25° C.
Note: unit M⁻¹ s⁻¹ is implicit; provide only the numeric part.

{"Molecule": "CL25_hu_9-6: humanized CL25 antibody, VH and VL in FIG. 1C (antibody, V domains shown) VH: QVQLVQSGAEVKKPGSSVKVSCKASGYTFTSYGLSWVRQAPGQGLEWMGEIYPGSGNTYYNEKFKGRVTITADESTSTAYMELSSLRSEDTAVYYCARYDYLGSSYGFDYWGAGTTVTVSS VL: AIRMTQSPSSFSASTGDRVTITCKASQDVSTAVAWYQQKPGKAPKLLIYSASYRYSGVPSRFSGSGSGTDFTLTISCLQSEDFATYYCQQHYNTPYTFGGGTKLEIK", "Readout": "ka", "Result Units": "M⁻¹ s⁻¹", "Readout Value": 424000}

For CL25_hu_9-4: humanized CL25 antibody, VH and VL in FIG. 1C (antibody, V domains shown) VH: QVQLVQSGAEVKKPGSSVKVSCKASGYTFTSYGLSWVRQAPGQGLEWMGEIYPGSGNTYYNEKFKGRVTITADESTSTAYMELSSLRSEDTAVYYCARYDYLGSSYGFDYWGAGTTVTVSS VL: DIQMTQSPSSLSASVGDRVTITCKASQDVSTAVAWYQQKPGKAPKLLLYSASYRYSGVPSRFSGSGSGTDYTLTISSLQPEDFATYYCQQHYNTPYTFGGGTKLEIK , what is its reported ka?
382000
